So I've got a bunch of binders here, and I need their Kd values.
Molecular target: T1, BMP2 (Homo sapiens (Human),Homo sapiens …, UniProt P12643,P12643)
T1 chain 1: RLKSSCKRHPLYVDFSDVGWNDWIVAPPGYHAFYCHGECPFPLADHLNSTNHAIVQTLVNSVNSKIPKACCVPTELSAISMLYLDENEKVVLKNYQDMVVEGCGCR
T1 chain 2: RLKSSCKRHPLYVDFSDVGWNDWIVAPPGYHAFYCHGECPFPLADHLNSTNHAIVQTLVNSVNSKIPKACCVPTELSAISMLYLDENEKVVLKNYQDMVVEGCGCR
Test: SPR kinetic 1:1, BMP immobilised, full soluble RGM analyte
Answers are plain numbers, in nM.

RGMC (protein) QCKILRCNAEYVSSTLSLRGGGSSGALRGGGGGGRGGGVGSGGLCRALRSYALCTRRTARTCRGDLAFHSAVHGIEDLMIQHNCSRQGPTAPPPP ... 9.4

Reported Kd for RGMB (protein) QCRIQKCTTDFVSLTSHLNSAVDGFDSEFCKALRAYAGCTQRTSKACRGNLVYHSAVLGISDLMSQRNCSKDGPTSSTNP was 5.5
